# Assay method text: Drug uptake in brain of cPP-induced feeding rat model at 30 mg/kg, po after 6 hrs
# Type: ADME, organism-based
# Design: dose 30 mg/kg, route oral
# Condition info: read-out: Drug uptake
Outcome measure: concentration at 6 h (ng/g)
Kindly provide the numeric value in ng/g only, without the unit symbol.

get_value(item= CS(=O)(=O)NC[C@H]1CC[C@H](Nc2nc3c(s2)CCSc2ccccc2-3)CC1 , readout=concentration at 6 h) returns 401

====

# Assay method text: Drug uptake in brain of cPP-induced feeding rat model at 3 mg/kg, po after 4 hrs
# Type: ADME, organism-based
# Parameters: dose 3 mg/kg, route oral
# Condition info: read-out: Drug uptake
Outcome measure: concentration at 4 h (ng/g)
Write the number in ng/g without appending the unit.

Recorded concentration at 4 h (compound CS(=O)(=O)NC[C@H]1CC[C@H](Nc2nc3c(s2)CCSc2ccccc2-3)CC1 ): 52

====

# System: Neuropeptide Y receptor type 5 (Homo sapiens, UniProt Q15761)
# Sequence (Q15761 whole entry): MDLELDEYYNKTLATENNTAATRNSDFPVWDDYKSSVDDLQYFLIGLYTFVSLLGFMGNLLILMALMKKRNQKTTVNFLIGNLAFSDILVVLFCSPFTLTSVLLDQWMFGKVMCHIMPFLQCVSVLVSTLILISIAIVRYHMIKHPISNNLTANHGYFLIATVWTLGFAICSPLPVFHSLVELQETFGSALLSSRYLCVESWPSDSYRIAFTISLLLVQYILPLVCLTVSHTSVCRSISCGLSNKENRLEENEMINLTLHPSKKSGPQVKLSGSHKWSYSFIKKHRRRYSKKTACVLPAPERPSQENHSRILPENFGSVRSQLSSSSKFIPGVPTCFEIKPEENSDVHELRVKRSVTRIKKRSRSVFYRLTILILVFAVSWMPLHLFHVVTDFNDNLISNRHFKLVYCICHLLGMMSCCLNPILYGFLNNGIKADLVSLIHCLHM
# Assay method text: Binding affinity to NPY5 receptor
Outcome measure: pKi
Reminder that pKi is minus the log10 of a molar concentration.

pKi in this record for COc1ccccc1CNCCCCCCNCCSSCCNCCCCCCNCc1ccccc1OC : 5.30

====

# System: Neuropeptide Y receptor type 5 (Rattus norvegicus, UniProt Q63634)
# Sequence (Q63634 whole entry): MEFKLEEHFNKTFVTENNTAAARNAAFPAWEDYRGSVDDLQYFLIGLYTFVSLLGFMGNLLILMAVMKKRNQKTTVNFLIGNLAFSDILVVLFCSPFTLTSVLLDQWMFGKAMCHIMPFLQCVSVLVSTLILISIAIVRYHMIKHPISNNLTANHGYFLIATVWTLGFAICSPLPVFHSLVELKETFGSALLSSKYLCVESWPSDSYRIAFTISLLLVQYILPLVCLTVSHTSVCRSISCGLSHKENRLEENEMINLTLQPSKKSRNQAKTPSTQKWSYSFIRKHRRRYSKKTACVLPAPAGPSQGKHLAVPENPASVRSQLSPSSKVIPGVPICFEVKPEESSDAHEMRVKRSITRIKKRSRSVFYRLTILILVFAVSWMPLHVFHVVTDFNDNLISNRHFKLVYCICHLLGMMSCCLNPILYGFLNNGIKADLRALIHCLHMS
# Assay method text: Antagonist activity at rat NPY5 receptor
Outcome measure: Ki (nM)
Reply with just the number (in nM).

Sure, the documented Ki for CS(=O)(=O)NC[C@H]1CC[C@H](Nc2nc3c(s2)CCSc2ccccc2-3)CC1 is 1.4

====

# Assay method text: Plasma concentration in cPP-induced feeding rat model at 30 mg/kg, po after 6 hrs
# Assay type: ADME, organism-based
# Set-up: dose 30 mg/kg, route oral
Outcome measure: concentration at 6 h (ng/mL)
State just the number; it will be interpreted in ng/mL.

The compound identified as CS(=O)(=O)NC[C@H]1CC[C@H](Nc2nc3c(s2)CCSc2ccccc2-3)CC1 registered its concentration at 6 h at 181

====

# Assay method text: Drug uptake in brain of cPP-induced feeding rat model at 10 mg/kg, po after 1 hr
# Type: ADME, organism-based
# Design: dose 10 mg/kg, route oral
# Condition info: read-out: Drug uptake
Outcome measure: concentration at 1 h (ng/g)
Respond numerically; units are ng/g and should not be typed.

For reference, reported concentration at 1 h for CS(=O)(=O)NC[C@H]1CC[C@H](Nc2nc3c(s2)CCSc2ccccc2-3)CC1 stands at 179

====

# Assay method text: Plasma concentration in cPP-induced feeding rat model at 30 mg/kg, po after 1 hr
# Assay type: ADME, organism-based
# Set-up: dose 30 mg/kg, route oral
Outcome measure: concentration at 1 h
Include the unit after the number when you answer.

The compound listed as CS(=O)(=O)NC[C@H]1CC[C@H](Nc2nc3c(s2)CCSc2ccccc2-3)CC1 shows concentration at 1 h equal to 267 ng/mL

====

# Assay method text: Plasma protein binding in rat
# Format: ADME, cell-free
# Condition info: read-out: PPB (converted)
Outcome measure: fraction unbound
Reply with the value as a number alone.

Given item CS(=O)(=O)NC[C@H]1CC[C@H](Nc2nc3c(s2)CCSc2ccccc2-3)CC1 , the value recorded as its fraction unbound is 0.006

====

Could you please report measured pIC50 for the items listed next?
# System: Neuropeptide Y receptor type 5 (Homo sapiens)
# Assay method text: Antagonist activity at human NPY5 receptor assessed as calcium mobilization by FLIPR assay
Hey, just a heads up that pIC50 is the negative log base 10 of the concentration in molar.

# pIC50 measured on Neuropeptide Y receptor type 5 (Homo sapiens) for item O=S(=O)(CC(F)(F)F)NCCCCCNc1nc2c(s1)CCCc1ccc(F)cc1-2 = 8.00

Noted pIC50 for CS(=O)(=O)NC[C@H]1CC[C@H](Nc2nc3c(s2)CCOc2ccccc2-3)CC1 , tested on Neuropeptide Y receptor type 5 (Homo sapiens): 8.41

Case Cn1cnc(S(=O)(=O)NC[C@H]2CC[C@H](Nc3nc4c(s3)CCSc3ccccc3-4)CC2)c1 , Neuropeptide Y receptor type 5 (Homo sapiens), pIC50 recorded as 7.98

Tested on Neuropeptide Y receptor type 5 (Homo sapiens), the item O=S(=O)(NC[C@H]1CC[C@H](Nc2nc3c(s2)CCSc2ccccc2-3)CC1)c1cccc2ccccc12 showed pIC50 equal to 7.36

Field pIC50 (Neuropeptide Y receptor type 5 (Homo sapiens)), entry CS(=O)(=O)NC[C@H]1CC[C@H](Nc2nc3c(s2)CCSc2ccccc2-3)CC1 : 8.74

COc1ccc(C)cc1S(=O)(=O)NC[C@H]1CC[C@H](Nc2nc3c(s2)CCSc2ccccc2-3)CC1 tested on Neuropeptide Y receptor type 5 (Homo sapiens) gave pIC50: 7.46

Summary line: CCS(=O)(=O)NCCCCCNc1nc2c(s1)CCCc1ccc(F)cc1-2 , Neuropeptide Y receptor type 5 (Homo sapiens), reported pIC50 = 8.89

Measured pIC50 for this entry CS(=O)(=O)N[C@H]1CC[C@H](Nc2nc3c(s2)CCCc2ccc(F)cc2-3)CC1 on Neuropeptide Y receptor type 5 (Homo sapiens): 8.06

Record CCS(=O)(=O)NCCCCCNc1nc2c(s1)CCSc1ccccc1-2 / Neuropeptide Y receptor type 5 (Homo sapiens), pIC50 recorded as 9.22

====

# Assay method text: Plasma concentration in cPP-induced feeding rat model at 30 mg/kg, po after 2 hrs
# Assay type: ADME, organism-based
# Design: dose 30 mg/kg, route oral
Outcome measure: concentration at 2 h (ng/mL)
The answer is to be given in ng/mL; state only the numeric part.

// CS(=O)(=O)NC[C@H]1CC[C@H](Nc2nc3c(s2)CCSc2ccccc2-3)CC1 : concentration at 2 h value = 337

Where these numbers come from: ChEMBL document CHEMBL1833793
